System: K562
protocolNotes: NCI tumour cell line growth inhibition, 48 h
Activity calls are given as the source filed them. No stated cut-off is given here; in the data, active = GI50 up to about 1.1 µM and inactive = higher.
Your reply should match one of these outcome classes. active, inactive

Input: Which outcome did this test record for the compound `Cc1cc2[n-][n+]3ncc(-c4ccccc4)n3c2cc1[N+](=O)[O-]` ?
Output: inactive

Input: // param item: `O=C(CC/C(C/C(=N/O)c1ccc(F)cc1)=N/O)N(Cc1ccccc1)Cc1ccccc1` ; yields the recorded call
Output: inactive

* * *

As shown below, each of these molecules has a reported GI50 value.
Test system: U-251
protocolNotes: NCI tumour cell line growth inhibition, 48 h
Calls of active or inactive are those of the source. Cut-off read from the data, not from the text of the source: active = GI50 up to about 1.1 µM and inactive = higher.

Some solved cases for reference:
CC1=CCC2CC1C(C(=O)c1c[nH]c3ccccc13)=NC2(C)C (stereo not given) :: 34.5 µM (inactive)
Clc1ccc(OCc2nnc3sc(SSc4nn5c(COc6ccc(Cl)cc6)nnc5s4)nn23)cc1 :: > 100 µM (inactive)

Hey, U-251 data for `O=C1OC(c2ccccc2Br)=N/C1=C/c1ccccc1` : GI50 came out at 26.6 µM (inactive)

The reported GI50 value, U-251, for `COc1cc(C[C@H]2C(=O)OC[C@@H]2Cc2ccc(OC)c(OC)c2)cc(OC)c1` reads 70.8 µM (inactive)

Record `Oc1ccc2ccccc2c1OCc1nnc(CCCCCCCCc2nnc(COc3c(O)ccc4ccccc34)o2)o1` ; system U-251; GI50 = 35.7 µM (inactive)

* * *

System: SK-OV-3
protocolNotes: NCI tumour cell line growth inhibition, 48 h
Active and inactive are the calls of the source. Rule as the data show it: active = GI50 up to about 1.1 µM and inactive = higher.
quantityName: GI50

`CC(=O)Nc1cccc2[nH]c3ccccc3c(=O)c12` has a reported GI50 of 32.1 µM (inactive)

Reported GI50 for `O=C1NC(=O)C(C(=O)C(=O)Nc2cc(Cl)ccc2Cl)C(=O)N1` was > 100 µM (inactive)

The compound identified as COc1ccc(C2c3cc4c(cc3OC(N3CCOCC3)C2C)OCO4)cc1OC (stereo unspecified) registered its GI50 at 5.24 µM (inactive)

compound `COc1ccc(NC(=O)C(C#N)=C(SC)SC)cc1` , GI50 observed: > 100 µM (inactive)

response.value for `Cn1nc(-c2ccccc2)nc1[N+](=O)[O-]` (field: GI50) = > 10 µM (inactive)

response.value for O=C1C(=O)C2(CC1S(=O)(=O)c1ccccc1)c1ccccc1-c1ccccc12 (stereo unspecified) (field: GI50) = 38.9 µM (inactive)

The recorded GI50 for entry CC12Nc3c(Cl)cc(Cl)cc3N1C(=O)c1ccccc12 (stereo unspecified) equals > 100 µM (inactive)

GET /value?item= OC1CN=C2c3ccccc3C(O)(c3ccc(Cl)cc3)N2C1 (stereo unspecified) &field=GI50 returns 69.5 µM (inactive)

The compound listed as CCOc1cc(NC(C)=O)ccc1C(=O)NN1C(=O)C(Cl)C1c1ccc(O)c(OC)c1 (stereo unspecified) shows GI50 equal to 17.3 µM (inactive)

Measured GI50, `O=C(c1cc(Cl)cc(Cl)c1)N1CCN(C(=O)c2cc(Cl)cc(Cl)c2)C1=S` : 16.3 µM (inactive)

Looking up `COc1nc(N=P(c2ccccc2)(c2ccccc2)c2ccccc2)cc(=O)[nH]1` , I found its GI50 recorded as > 100 µM (inactive)

* * *

Test system: HCT-15
quantityName: GI50 (µM)
State the answer as a number, implicitly in µM.

COc1cc(C[C@H]2C(=O)OC[C@@H]2Cc2ccc(OC)c(OC)c2)cc(OC)c1 :: 53.3
CC/C=C/C[C@H](O[Si](C)(C)C(C)(C)C)[C@H]1C[C@H]2O[C@H]([C@@H](O)C#C[Si](C)(C)C)C[C@H]2O1 :: 13.7
Cc1c(/N=N/c2ccc(Cl)cc2)c(C)n(C2OC(CO)C(O)C(O)C2O)c(=S)c1C#N (stereo unspecified) :: 23.8
O=C1OC(c2ccccc2Br)=N/C1=C/c1ccccc1 :: 29.9

Let us move to another entry and its GI50.
# GI50 measured on HCT-15 for item `Cc1cccc(NC(=S)N/N=C2\C(=O)Nc3ccccc32)c1` = 73.8
